Recorded pIC50 by entry
- target: recombinant human 5-HT2A receptor (Homo sapiens)
- Construct: expressed in transfected cells; host or cells: CHO-K1
- Sequence (P28223 whole entry): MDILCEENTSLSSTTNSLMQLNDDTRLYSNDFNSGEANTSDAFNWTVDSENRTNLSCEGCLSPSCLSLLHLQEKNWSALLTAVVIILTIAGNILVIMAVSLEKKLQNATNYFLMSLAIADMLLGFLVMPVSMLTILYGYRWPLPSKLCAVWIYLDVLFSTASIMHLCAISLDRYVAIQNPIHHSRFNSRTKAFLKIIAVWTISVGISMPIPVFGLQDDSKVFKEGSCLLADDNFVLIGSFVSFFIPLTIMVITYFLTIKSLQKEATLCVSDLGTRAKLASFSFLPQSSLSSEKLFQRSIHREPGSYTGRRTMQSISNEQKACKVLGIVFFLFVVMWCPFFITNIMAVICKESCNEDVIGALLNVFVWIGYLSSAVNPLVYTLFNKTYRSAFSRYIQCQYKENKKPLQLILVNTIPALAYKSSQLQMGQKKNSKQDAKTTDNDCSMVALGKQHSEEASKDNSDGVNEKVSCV
- procedure.summary: radioligand binding to serotonin receptor 5-HT2A ([3H] Ketanserin)
Note: pIC50 values are expressed as the negative base-10 logarithm of concentration in M.

>  <molecule>
CN1CCc2c(c3ccccc3n2Cc2ccccc2)C1.Cl [1.9(1)•HCl]

>  <pIC50>
7.52

$$$$

Prompt: What pIC50 value was documented for this molecule, Cc1ccc(S(=O)(=O)n2c3c(c4cc(C)ccc42)CN(C)CCC3)cc1.Cl [1.8.1(3)•HCl] ?
Completion: 7.65

* * *

Consider compounds characterized by their pIC50 with adrenergic receptor α1A (Rattus norvegicus, UniProt P43140).
Sequence (P43140 whole entry): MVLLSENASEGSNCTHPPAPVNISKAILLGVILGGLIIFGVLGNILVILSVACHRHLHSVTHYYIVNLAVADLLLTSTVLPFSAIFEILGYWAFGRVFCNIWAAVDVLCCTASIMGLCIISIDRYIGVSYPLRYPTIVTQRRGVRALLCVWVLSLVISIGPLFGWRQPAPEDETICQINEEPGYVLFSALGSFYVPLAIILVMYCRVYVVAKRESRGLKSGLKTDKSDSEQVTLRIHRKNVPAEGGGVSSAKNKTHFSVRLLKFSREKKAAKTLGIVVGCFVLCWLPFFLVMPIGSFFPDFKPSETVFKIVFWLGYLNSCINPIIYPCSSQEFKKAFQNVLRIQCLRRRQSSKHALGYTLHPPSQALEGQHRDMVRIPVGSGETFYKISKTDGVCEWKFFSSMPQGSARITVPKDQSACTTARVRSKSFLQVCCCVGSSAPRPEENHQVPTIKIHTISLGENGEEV
Worth noting: pIC50 values are minus log10 of concentrations stated in mol/L.

Below, 2 compounds whose answers are already recorded.
>  <compound>
CN1CCc2c(c3ccccc3n2Cc2ccccc2)C1

>  <pIC50>
6.29

$$$$
>  <compound>
Cc1ccc2c(c1)c1c(n2CCc2ccc(C)nc2)CCN(C)C1.Cl.Cl [1.1.2(4-2)•2HCl]

>  <pIC50>
6.87

$$$$

Moving on to the next compound.
Prompt: What pIC50 appears in the records for this compound with adrenergic receptor α1A (Rattus norvegicus, UniProt P43140)? Cc1ccc2c(c1)c1c(n2CCc2ccccn2)CCN(C)C1.Cl.Cl [1.1.2(2-3)•2HCl]
Completion: 6.35

Data origin, for the record: patent US20110039825A1
